B1: OR4K15 (parent)
chain: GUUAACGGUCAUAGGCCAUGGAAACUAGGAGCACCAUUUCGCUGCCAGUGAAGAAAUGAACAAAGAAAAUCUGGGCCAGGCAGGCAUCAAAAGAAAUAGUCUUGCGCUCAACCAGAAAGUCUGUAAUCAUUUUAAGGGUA

Variants of: B1
Protocol text: self-cleavage, relative activity (ratio to wild type); higher = more cleavage; in vitro, sequencing; the parent is a self-cleaving ribozyme
Readout name: self-cleavage
Reply: number alone, nothing else.

Reference set, count: 3
C113A = 0.03
U3G A66G = 1.01
C113A A114G = 0.01

What value of self-cleavage has been recorded for this entry: A60U C128U
0.44

I am curious: what self-cleavage value has been reported for A23G U131C ?
0.45
